Reported SPOT intensity values follow for various binders
Biological target: T1, Fus1, P11710
T1 sequence (P11710 432-512, looked up): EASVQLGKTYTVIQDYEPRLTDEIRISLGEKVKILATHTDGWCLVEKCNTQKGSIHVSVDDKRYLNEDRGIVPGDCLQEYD
Assay: SPOT array
Conditions: median of control spots 1200
Property name: SPOT intensity

{"Binder": "LLIRWLILMPLVGSR", "Value measured": 168}
{"Binder": "IHTRRPSSTSQYLIR", "Value measured": 233}
{"Binder": "NRLRKRLNLPSEISI", "Value measured": 321}
{"Binder": "LFMKGTPEFPKSGFS", "Value measured": 0}
{"Binder": "VDFTLPPPPPPPGLD", "Value measured": 0}
{"Binder": "PPLPRAPPVPPATFE", "Value measured": 0}
{"Binder": "RPKRRAPPPVPKKPS", "Value measured": 6}
